assayed target: steroid sulphatase (Homo sapiens, UniProt P08842)
Construct: Sulphatase-positive human placenta from normal term pregnancies are thoroughly minced with scissors; from tissue; host or cells: human term placenta (2000 g supernatant / microsomes)
Sequence (P08842 22-583): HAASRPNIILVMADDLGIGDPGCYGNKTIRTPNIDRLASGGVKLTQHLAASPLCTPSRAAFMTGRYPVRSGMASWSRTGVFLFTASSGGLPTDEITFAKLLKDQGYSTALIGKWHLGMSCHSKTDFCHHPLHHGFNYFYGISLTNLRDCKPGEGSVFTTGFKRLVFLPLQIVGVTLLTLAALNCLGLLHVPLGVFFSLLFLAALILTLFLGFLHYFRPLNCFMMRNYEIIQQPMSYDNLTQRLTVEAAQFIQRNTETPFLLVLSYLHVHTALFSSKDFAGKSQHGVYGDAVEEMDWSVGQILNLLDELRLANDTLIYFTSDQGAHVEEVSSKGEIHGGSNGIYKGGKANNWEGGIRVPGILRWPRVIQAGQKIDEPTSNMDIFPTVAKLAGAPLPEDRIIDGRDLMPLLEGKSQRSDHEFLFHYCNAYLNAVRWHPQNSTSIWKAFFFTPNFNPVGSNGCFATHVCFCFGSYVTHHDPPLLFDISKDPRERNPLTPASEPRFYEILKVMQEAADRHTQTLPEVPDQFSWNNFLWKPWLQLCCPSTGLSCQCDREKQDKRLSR
assay name: Inhibition of steroid sulphatase activity in placental microsomes (Protocol 2)
Format: biochemical
test settings: 10 nM; superscript 1 or 2 = run with the reference values of that footnote; -ve % means stimulation
experimental readout: Placental Microsomes % inhibition

>>> df
                                   compound                            assayed_target   result
0  CN(C)S(=O)(=O)OC1CCC2C3CCc4cc(OS(N)(=O)=O)ccc4C3CCC12C (stereo not drawn)  steroid sulphatase (Homo sapiens, UniProt P08842)  30.3^1%
1  CN(C)S(=O)(=O)O[C@H]1CCC2C3CCc4cc(O)ccc4C3CC[C@@]21C (stereo partly drawn)  steroid sulphatase (Homo sapiens, UniProt P08842)  −0.1^1%
2  C[C@]12CCC3c4ccc(O)cc4CCC3C1CC[C@@H]2OS(=O)(=O)N(Cc1ccccc1)Cc1ccccc1 (stereo partly drawn)  steroid sulphatase (Homo sapiens, UniProt P08842)  −3.2^2%
3  C[C@]12CCC3c4ccc(OS(N)(=O)=O)cc4CCC3C1CC[C@H]2OS(=O)(=O)N(Cc1ccccc1)Cc1ccccc1 (stereo partly drawn)  steroid sulphatase (Homo sapiens, UniProt P08842)   4.9^1%
4  CC(=O)NS(=O)(=O)O[C@H]1CCC2C3CCc4cc(O)ccc4C3CC[C@@]21C (stereo partly drawn)  steroid sulphatase (Homo sapiens, UniProt P08842)   0.9^1%
5  CCCCCN(CCCCC)S(=O)(=O)O[C@H]1CCC2C3CCc4cc(O)ccc4C3CC[C@@]21C (stereo partly drawn)  steroid sulphatase (Homo sapiens, UniProt P08842)   1.2^2%
6  C[C@]12CCC3c4ccc(O)cc4CCC3C1CC[C@H]2OS(=O)(=O)N(Cc1ccccc1)Cc1ccccc1 (stereo partly drawn)  steroid sulphatase (Homo sapiens, UniProt P08842)   1.4^1%
7  CC(=O)NS(=O)(=O)O[C@H]1CCC2C3CCc4cc(OS(N)(=O)=O)ccc4C3CC[C@@]21C (stereo partly drawn)  steroid sulphatase (Homo sapiens, UniProt P08842)   9.8^1%
8  C[C@]12CCC3c4ccc(OS(N)(=O)=O)cc4CCC3C1CC[C@@H]2OS(=O)(=O)N(Cc1ccccc1)Cc1ccccc1 (stereo partly drawn)  steroid sulphatase (Homo sapiens, UniProt P08842)  −1.9^1%
